biological target: Ryanodine receptor 1 (Oryctolagus cuniculus, UniProt P11716); assay: Displacement of [3H]ryanodine from Ry1R/FKBP12 receptor complex in rabbit sarcoplasmic reticulum
Sequence (P11716 whole entry): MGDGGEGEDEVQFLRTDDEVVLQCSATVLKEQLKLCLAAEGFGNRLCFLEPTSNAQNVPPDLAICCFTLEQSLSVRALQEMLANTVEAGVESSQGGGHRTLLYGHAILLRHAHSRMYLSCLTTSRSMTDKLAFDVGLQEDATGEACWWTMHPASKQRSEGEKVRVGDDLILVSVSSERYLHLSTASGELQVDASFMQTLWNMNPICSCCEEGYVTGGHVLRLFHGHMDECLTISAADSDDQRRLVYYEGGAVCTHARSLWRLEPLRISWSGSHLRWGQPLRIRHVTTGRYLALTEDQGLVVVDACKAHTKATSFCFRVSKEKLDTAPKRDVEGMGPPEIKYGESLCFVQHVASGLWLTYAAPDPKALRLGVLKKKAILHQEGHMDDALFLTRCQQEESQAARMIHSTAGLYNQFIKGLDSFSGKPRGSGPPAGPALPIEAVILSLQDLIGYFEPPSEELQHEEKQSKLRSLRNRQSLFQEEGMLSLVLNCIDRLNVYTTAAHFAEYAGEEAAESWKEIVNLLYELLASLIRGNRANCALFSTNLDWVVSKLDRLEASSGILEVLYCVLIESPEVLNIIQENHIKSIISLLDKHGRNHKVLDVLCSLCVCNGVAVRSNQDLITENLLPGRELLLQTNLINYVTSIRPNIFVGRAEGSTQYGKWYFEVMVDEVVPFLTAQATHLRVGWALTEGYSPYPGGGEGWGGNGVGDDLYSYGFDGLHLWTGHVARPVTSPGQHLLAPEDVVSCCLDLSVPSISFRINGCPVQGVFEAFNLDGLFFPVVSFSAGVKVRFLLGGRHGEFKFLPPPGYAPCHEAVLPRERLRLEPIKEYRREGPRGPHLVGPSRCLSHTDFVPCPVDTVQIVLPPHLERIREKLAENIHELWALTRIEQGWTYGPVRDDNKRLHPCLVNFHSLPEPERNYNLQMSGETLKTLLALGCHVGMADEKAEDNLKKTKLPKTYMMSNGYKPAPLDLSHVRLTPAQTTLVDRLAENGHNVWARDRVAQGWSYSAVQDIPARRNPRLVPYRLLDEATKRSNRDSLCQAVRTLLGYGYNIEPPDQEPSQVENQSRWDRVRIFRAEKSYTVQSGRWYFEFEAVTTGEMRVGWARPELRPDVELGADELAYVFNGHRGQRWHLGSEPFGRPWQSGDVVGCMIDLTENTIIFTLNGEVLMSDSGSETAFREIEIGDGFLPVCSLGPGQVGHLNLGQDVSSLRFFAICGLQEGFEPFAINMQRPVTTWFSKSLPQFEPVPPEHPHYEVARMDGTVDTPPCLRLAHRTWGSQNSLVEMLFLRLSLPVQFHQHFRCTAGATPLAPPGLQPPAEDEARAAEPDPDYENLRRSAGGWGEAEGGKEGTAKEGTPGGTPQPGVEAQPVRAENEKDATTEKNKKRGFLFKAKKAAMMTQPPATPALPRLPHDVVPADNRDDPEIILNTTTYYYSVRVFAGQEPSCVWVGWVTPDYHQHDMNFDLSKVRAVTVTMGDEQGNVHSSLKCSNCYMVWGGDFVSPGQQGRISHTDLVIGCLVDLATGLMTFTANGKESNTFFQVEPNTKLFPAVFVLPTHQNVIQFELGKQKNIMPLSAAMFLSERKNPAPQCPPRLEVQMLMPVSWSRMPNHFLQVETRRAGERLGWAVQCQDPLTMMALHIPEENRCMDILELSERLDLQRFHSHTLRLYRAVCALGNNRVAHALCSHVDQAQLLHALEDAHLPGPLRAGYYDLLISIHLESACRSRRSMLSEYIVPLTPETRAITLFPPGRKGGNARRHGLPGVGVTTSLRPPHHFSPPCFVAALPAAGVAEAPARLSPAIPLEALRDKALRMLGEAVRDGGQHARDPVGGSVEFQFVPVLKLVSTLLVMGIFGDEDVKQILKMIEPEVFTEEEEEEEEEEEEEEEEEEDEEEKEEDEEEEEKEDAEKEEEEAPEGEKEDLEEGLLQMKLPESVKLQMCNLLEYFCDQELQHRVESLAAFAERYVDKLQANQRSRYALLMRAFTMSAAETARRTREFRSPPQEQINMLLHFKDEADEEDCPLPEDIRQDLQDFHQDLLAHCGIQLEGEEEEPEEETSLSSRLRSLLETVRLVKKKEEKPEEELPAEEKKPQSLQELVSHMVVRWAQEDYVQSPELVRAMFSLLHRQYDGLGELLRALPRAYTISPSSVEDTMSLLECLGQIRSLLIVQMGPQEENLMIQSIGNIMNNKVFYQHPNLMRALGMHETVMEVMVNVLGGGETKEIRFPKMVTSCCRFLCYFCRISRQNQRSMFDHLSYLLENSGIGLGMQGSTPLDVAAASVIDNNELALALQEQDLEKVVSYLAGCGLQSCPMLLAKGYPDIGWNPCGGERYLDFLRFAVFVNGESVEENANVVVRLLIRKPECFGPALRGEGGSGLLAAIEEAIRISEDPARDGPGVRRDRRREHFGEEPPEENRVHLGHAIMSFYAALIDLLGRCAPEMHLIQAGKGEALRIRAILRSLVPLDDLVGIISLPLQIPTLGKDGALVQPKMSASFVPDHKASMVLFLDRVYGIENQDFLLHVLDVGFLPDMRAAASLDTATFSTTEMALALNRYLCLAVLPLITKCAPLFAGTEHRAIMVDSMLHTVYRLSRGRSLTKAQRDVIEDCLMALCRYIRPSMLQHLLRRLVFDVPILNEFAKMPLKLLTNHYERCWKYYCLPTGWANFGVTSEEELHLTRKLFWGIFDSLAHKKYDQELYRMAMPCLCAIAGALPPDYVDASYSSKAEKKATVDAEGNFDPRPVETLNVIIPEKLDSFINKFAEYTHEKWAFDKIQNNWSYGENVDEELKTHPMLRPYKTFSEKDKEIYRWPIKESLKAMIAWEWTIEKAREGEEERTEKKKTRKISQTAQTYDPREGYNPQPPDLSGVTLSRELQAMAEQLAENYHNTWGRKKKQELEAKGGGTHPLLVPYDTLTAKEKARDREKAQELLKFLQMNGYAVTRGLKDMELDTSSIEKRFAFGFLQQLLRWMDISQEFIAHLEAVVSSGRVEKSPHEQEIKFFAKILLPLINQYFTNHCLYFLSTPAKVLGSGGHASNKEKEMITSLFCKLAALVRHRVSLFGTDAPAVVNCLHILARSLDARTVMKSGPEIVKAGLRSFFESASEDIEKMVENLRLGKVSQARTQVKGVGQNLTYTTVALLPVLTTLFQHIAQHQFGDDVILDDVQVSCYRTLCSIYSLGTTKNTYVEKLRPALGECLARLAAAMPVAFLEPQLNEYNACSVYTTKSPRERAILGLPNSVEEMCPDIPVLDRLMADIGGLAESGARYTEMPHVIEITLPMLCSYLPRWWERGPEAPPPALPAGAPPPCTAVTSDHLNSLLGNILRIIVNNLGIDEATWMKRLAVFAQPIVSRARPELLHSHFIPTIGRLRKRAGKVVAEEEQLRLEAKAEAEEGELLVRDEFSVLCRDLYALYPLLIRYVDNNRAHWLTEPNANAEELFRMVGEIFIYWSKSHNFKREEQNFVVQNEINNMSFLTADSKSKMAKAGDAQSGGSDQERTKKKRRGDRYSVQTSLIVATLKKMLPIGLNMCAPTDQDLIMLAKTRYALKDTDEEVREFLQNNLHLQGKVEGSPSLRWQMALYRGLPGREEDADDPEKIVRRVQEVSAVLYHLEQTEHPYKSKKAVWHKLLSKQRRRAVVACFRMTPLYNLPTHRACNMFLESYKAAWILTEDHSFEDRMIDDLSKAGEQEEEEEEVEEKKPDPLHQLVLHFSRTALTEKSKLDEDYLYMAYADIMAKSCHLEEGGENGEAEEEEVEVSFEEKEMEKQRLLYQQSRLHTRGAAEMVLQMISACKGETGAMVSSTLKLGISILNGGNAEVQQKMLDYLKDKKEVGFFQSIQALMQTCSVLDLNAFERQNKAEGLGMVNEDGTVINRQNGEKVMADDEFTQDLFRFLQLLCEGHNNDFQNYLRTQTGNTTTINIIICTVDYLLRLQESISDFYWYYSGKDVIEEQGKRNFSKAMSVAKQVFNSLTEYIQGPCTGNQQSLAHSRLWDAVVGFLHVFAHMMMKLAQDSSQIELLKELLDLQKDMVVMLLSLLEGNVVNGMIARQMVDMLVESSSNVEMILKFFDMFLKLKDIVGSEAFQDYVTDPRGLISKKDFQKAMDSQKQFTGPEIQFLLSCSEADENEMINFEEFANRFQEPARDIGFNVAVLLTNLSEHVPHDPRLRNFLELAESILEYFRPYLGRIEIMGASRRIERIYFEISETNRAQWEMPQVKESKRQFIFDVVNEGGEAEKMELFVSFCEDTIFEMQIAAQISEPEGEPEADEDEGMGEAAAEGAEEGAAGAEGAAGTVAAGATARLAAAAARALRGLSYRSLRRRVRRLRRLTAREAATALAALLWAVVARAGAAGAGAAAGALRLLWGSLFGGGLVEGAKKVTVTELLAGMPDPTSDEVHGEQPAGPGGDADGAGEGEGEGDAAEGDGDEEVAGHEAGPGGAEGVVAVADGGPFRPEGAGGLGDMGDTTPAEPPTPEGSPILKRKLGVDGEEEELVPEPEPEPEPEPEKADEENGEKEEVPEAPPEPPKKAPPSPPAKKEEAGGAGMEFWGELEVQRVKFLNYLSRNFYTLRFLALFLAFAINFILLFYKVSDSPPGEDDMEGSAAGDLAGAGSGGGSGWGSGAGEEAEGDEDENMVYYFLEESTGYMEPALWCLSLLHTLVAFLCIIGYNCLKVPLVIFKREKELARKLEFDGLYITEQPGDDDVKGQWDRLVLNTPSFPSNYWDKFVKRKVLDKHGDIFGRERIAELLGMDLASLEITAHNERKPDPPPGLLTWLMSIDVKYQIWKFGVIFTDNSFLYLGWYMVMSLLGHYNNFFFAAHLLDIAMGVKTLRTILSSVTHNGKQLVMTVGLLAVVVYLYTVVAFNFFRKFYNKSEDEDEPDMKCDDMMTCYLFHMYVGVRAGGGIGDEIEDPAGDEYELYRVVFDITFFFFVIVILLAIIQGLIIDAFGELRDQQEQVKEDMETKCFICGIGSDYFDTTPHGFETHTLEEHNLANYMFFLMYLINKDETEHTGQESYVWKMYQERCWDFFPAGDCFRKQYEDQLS
Result Type: pEC50
Give only the number. pEC50 is defined as minus log10 of concentration in molar units.

pEC50 on Ryanodine receptor 1 (Oryctolagus cuniculus, UniProt P11716) for "O=C1N/C=C/c2ccc(c(Br)c2)Oc2cc(cc(Br)c2OS(=O)(=O)O)CCNC(=O)/C(=N/O)Cc2ccc(c(Br)c2)Oc2cc(cc(Br)c2OS(=O)(=O)O)C/C1=N\O" is 4.87
